- measured on: UniProt P20813
- procedure details: Percentage inhibition of bupropion hydroxylase activity in irreversibly inhibited human liver microsomes vs control batch
- conditions used: pH 7.4
readout type: inhibition at 30 min, 15 µM (%)
The answer is to be given in %; state only the numeric part.

*Q* Recorded inhibition at 30 min, 15 µM of `S=P(N1CC1)(N1CC1)N1CC1` , please.
*A* 92

* * *

- measured on: CYP2B6 (Homo sapiens, UniProt P20813)
- Sequence (P20813 whole entry): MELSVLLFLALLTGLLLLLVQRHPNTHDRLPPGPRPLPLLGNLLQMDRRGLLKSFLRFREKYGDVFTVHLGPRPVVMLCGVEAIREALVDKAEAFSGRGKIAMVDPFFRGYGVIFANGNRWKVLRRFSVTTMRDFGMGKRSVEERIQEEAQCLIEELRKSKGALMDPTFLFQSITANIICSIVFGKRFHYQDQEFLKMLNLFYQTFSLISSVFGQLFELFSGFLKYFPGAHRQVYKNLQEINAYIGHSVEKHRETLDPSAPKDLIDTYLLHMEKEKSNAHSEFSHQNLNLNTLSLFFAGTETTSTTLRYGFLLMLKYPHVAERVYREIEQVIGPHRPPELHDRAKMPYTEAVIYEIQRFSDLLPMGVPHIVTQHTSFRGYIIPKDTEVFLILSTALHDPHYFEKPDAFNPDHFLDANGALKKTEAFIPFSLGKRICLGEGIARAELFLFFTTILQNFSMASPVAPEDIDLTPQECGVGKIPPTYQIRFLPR
- procedure details: Percentage inhibition of bupropion hydroxylase activity in irreversibly inhibited human liver microsomes vs control batch
- conditions used: pooled human liver microsomes, pH 7.4, probe bupropion
readout type: inhibition at 30 min, 50 µM (%)
Return type: number; implicit unit %.

*Q* Find the recorded inhibition at 30 min, 50 µM belonging to `Fc1ccc([C@@H]2CCNC[C@H]2COc2ccc3c(c2)OCO3)cc1` and report it.
*A* 91
